We begin with a simple list: items and their reported CC50 at 48 h.
- measurement-protocol: Cytotoxicity against MDCK cells assessed as growth inhibition after 48 hrs
- Type: cell-based, Canis lupus familiaris
- conditions: dog, read-out: TC50

query-smiles: C[C@H](CCC(=O)C(C)(C)O)[C@H]1CC[C@@]2(C(=O)O)[C@@H]3CCC4=C(CC[C@@H](O[C@@H]5O[C@H](CO)[C@@H](O)[C@H](O)[C@H]5O)C4(C)C)C[C@H]3CC[C@]12C
qual: =
CC50 at 48 h / µM: 33.3
--
query-smiles: CC(=O)OC[C@H]1O[C@@H](O[C@@H]2CC[C@]3(C)C4=C(CC[C@H]3C2(C)C)[C@]2(C(=O)O)CC[C@H]([C@H](C)CC[C@H](O[C@@H]3OC[C@H](O)[C@H](O)[C@H]3O)C(C)(C)O)[C@@]2(C)CC4)[C@H](O)[C@@H](O)[C@@H]1O
qual: =
CC50 at 48 h / µM: 57.7
--
query-smiles: C[C@H](CC[C@H](O[C@@H]1O[C@H](CO)[C@@H](O)[C@H](O)[C@H]1O)C(C)(C)O)[C@H]1CC[C@@]2(C(=O)O)[C@@H]3CC[C@@H]4C(=CC[C@@H](O[C@@H]5O[C@H](CO)[C@@H](O)[C@H](O)[C@H]5O)C4(C)C)C[C@H]3CC[C@]12C
qual: >
CC50 at 48 h / µM: 100
--
query-smiles: C[C@H](CC[C@H](O)C(C)(C)O)[C@H]1CC[C@@]2(C(=O)O)[C@@H]3CCC4=C(CC[C@@H](O[C@@H]5O[C@H](CO)[C@@H](O)[C@H](O)[C@H]5O)C4(C)C)C[C@H]3CC[C@]12C
qual: =
CC50 at 48 h / µM: 100
